- System: Enterococcus faecium
- Assay info: Antibacterial activity against Enterococcus faecium ATCC 49452 at 0 % serum
- Format: functional
MIC overview
// note: answer is a bare numeric in µg/mL

Completed entries (count: 2):
1) CCCCCCCCCC(=O)N[C@@H](Cc1c[nH]c2ccccc12)C(=O)N[C@H](CC(N)=O)C(=O)N[C@@H](CCO)C(=O)N[C@@H]1C(=O)NCC(=O)N[C@@H](CCCNCc2ccccc2F)C(=O)N[C@@H](CC(=O)O)C(=O)N[C@H](C)C(=O)N[C@@H](CC(=O)O)C(=O)NCC(=O)N[C@H](CO)C(=O)N[C@@H]([C@H](C)CC(=O)O)C(=O)N[C@@H](CC(=O)c2ccccc2N)C(=O)O[C@@H]1C : 6.25
2) CCCCCCCCCC(=O)N[C@@H](Cc1c[nH]c2ccccc12)C(=O)N[C@H](CC(N)=O)C(=O)N[C@@H](CCO)C(=O)N[C@@H]1C(=O)NCC(=O)N[C@@H](CCCNCc2ccc(F)cc2F)C(=O)N[C@@H](CC(=O)O)C(=O)N[C@H](C)C(=O)N[C@@H](CC(=O)O)C(=O)NCC(=O)N[C@H](CO)C(=O)N[C@@H]([C@H](C)CC(=O)O)C(=O)N[C@@H](CC(=O)c2ccccc2N)C(=O)O[C@@H]1C : 6.25

Below: the item to evaluate.
Query: Short answer please: MIC, Enterococcus faecium, entry CCCCCCCCCC(=O)N[C@@H](Cc1c[nH]c2ccccc12)C(=O)N[C@H](CC(N)=O)C(=O)N[C@@H](CC(=O)O)C(=O)N[C@@H]1C(=O)NCC(=O)N[C@@H](CCCNCc2ccc(-c3ccccc3)cc2)C(=O)N[C@@H](CC(=O)O)C(=O)N[C@H](C)C(=O)N[C@@H](CC(=O)O)C(=O)NCC(=O)N[C@H](CO)C(=O)N[C@@H]([C@H](C)CC(=O)O)C(=O)N[C@@H](CC(=O)c2ccccc2N)C(=O)O[C@@H]1C
Reply: 1.56

###

- Test system: Enterococcus faecalis
- Assay info: Antibacterial activity against Enterococcus faecalis ATCC 6569 at 10 % serum
- Format: functional
- Cond: ATCC 6569, Serum
Property measured: MIC

Query: Could you tell me which MIC is on file for CCCCCCCCCC(=O)N[C@@H](Cc1c[nH]c2ccccc12)C(=O)N[C@H](CC(N)=O)C(=O)N[C@@H](CCO)C(=O)N[C@@H]1C(=O)NCC(=O)N[C@@H](CCCNCc2ccccc2F)C(=O)N[C@@H](CC(=O)O)C(=O)N[C@H](C)C(=O)N[C@@H](CC(=O)O)C(=O)NCC(=O)N[C@H](CO)C(=O)N[C@@H]([C@H](C)CC(=O)O)C(=O)N[C@@H](CC(=O)c2ccccc2N)C(=O)O[C@@H]1C ?
Reply: 12.5 µg/mL

Query: Could you tell me which MIC is on file for CCCCCCCCCC(=O)N[C@@H](Cc1c[nH]c2ccccc12)C(=O)N[C@H](CC(N)=O)C(=O)N[C@@H](CCO)C(=O)N[C@@H]1C(=O)NCC(=O)N[C@@H](CCCNCc2ccc(C(=O)N3CCN(Cc4ccccc4)CC3)cc2)C(=O)N[C@@H](CC(=O)O)C(=O)N[C@H](C)C(=O)N[C@@H](CC(=O)O)C(=O)NCC(=O)N[C@H](CO)C(=O)N[C@@H]([C@H](C)CC(=O)O)C(=O)N[C@@H](CC(=O)c2ccccc2N)C(=O)O[C@@H]1C ?
Reply: 6.25 µg/mL

Query: Could you tell me which MIC is on file for CCCCCCCCCC(=O)N[C@@H](Cc1c[nH]c2ccccc12)C(=O)N[C@H](CC(N)=O)C(=O)N[C@@H](CCO)C(=O)N[C@@H]1C(=O)NCC(=O)N[C@@H](CCCNCc2ccc(/C=C/C(=O)N3CCN(c4ccc(Cl)c(Cl)c4)CC3)cc2)C(=O)N[C@@H](CC(=O)O)C(=O)N[C@H](C)C(=O)N[C@@H](CC(=O)O)C(=O)NCC(=O)N[C@H](CO)C(=O)N[C@@H]([C@H](C)CC(=O)O)C(=O)N[C@@H](CC(=O)c2ccccc2N)C(=O)O[C@@H]1C ?
Reply: 50 µg/mL

Query: Could you tell me which MIC is on file for CCCCCCCCCC(=O)N[C@@H](Cc1c[nH]c2ccccc12)C(=O)N[C@H](CC(N)=O)C(=O)N[C@@H](CCO)C(=O)N[C@@H]1C(=O)NCC(=O)N[C@@H](CCCNCc2cccc([N+](=O)[O-])c2)C(=O)N[C@@H](CC(=O)O)C(=O)N[C@H](C)C(=O)N[C@@H](CC(=O)O)C(=O)NCC(=O)N[C@H](CO)C(=O)N[C@@H]([C@H](C)CC(=O)O)C(=O)N[C@@H](CC(=O)c2ccccc2N)C(=O)O[C@@H]1C ?
Reply: 12.5 µg/mL

Query: Could you tell me which MIC is on file for CCCCCCCCCC(=O)N[C@@H](Cc1c[nH]c2ccccc12)C(=O)N[C@H](CC(N)=O)C(=O)N[C@@H](CCO)C(=O)N[C@@H]1C(=O)NCC(=O)N[C@@H](CCCNCc2cccc(F)c2)C(=O)N[C@@H](CC(=O)O)C(=O)N[C@H](C)C(=O)N[C@@H](CC(=O)O)C(=O)NCC(=O)N[C@H](CO)C(=O)N[C@@H]([C@H](C)CC(=O)O)C(=O)N[C@@H](CC(=O)c2ccccc2N)C(=O)O[C@@H]1C ?
Reply: 12.5 µg/mL

###

- Tested on: Enterococcus faecalis
- Assay info: Antibacterial activity against Enterococcus faecalis ATCC 6569 at 10 % serum
- Format: functional
- Cond: ATCC 6569, Serum
MIC overview
// note: answer is a bare numeric in µg/mL

Completed entries (count: 3):
1) CCCCCCCCCC(=O)N[C@@H](Cc1c[nH]c2ccccc12)C(=O)N[C@H](CC(N)=O)C(=O)N[C@@H](CCO)C(=O)N[C@@H]1C(=O)NCC(=O)N[C@@H](CCCNCc2nccs2)C(=O)N[C@@H](CC(=O)O)C(=O)N[C@H](C)C(=O)N[C@@H](CC(=O)O)C(=O)NCC(=O)N[C@H](CO)C(=O)N[C@@H]([C@H](C)CC(=O)O)C(=O)N[C@@H](CC(=O)c2ccccc2N)C(=O)O[C@@H]1C : 12.5
2) CCCCCCCCCC(=O)N[C@@H](Cc1c[nH]c2ccccc12)C(=O)N[C@H](CC(N)=O)C(=O)N[C@@H](CCO)C(=O)N[C@@H]1C(=O)NCC(=O)N[C@@H](CCCNCc2ccc(S(=O)(=O)NCc3ccc(C(F)(F)F)cc3)cc2)C(=O)N[C@@H](CC(=O)O)C(=O)N[C@H](C)C(=O)N[C@@H](CC(=O)O)C(=O)NCC(=O)N[C@H](CO)C(=O)N[C@@H]([C@H](C)CC(=O)O)C(=O)N[C@@H](CC(=O)c2ccccc2N)C(=O)O[C@@H]1C : 6.25
3) CCCCCCCCCC(=O)N[C@@H](Cc1c[nH]c2ccccc12)C(=O)N[C@H](CC(N)=O)C(=O)N[C@@H](CCO)C(=O)N[C@@H]1C(=O)NCC(=O)N[C@@H](CCCNCc2ccc(OCc3ccccc3)c(Cl)c2)C(=O)N[C@@H](CC(=O)O)C(=O)N[C@H](C)C(=O)N[C@@H](CC(=O)O)C(=O)NCC(=O)N[C@H](CO)C(=O)N[C@@H]([C@H](C)CC(=O)O)C(=O)N[C@@H](CC(=O)c2ccccc2N)C(=O)O[C@@H]1C : 12.5

Query: Could you tell me which MIC is on file for CCCCCCCCCC(=O)N[C@@H](Cc1c[nH]c2ccccc12)C(=O)N[C@H](CC(N)=O)C(=O)N[C@@H](CCO)C(=O)N[C@@H]1C(=O)NCC(=O)N[C@@H](CCCNCc2ccccc2N)C(=O)N[C@@H](CC(=O)O)C(=O)N[C@H](C)C(=O)N[C@@H](CC(=O)O)C(=O)NCC(=O)N[C@H](CO)C(=O)N[C@@H]([C@H](C)CC(=O)O)C(=O)N[C@@H](CC(=O)c2ccccc2N)C(=O)O[C@@H]1C ?
Reply: 25

Query: Could you tell me which MIC is on file for CCCCCCCCCC(=O)N[C@@H](Cc1c[nH]c2ccccc12)C(=O)N[C@H](CC(N)=O)C(=O)N[C@@H](CCO)C(=O)N[C@@H]1C(=O)NCC(=O)N[C@@H](CCCNCc2ccc(S(=O)(=O)N3CCN(c4ccccc4)CC3)cc2)C(=O)N[C@@H](CC(=O)O)C(=O)N[C@H](C)C(=O)N[C@@H](CC(=O)O)C(=O)NCC(=O)N[C@H](CO)C(=O)N[C@@H]([C@H](C)CC(=O)O)C(=O)N[C@@H](CC(=O)c2ccccc2N)C(=O)O[C@@H]1C ?
Reply: 6.25

###

MIC overview
- Test system: Enterococcus faecium
- Assay info: Antibacterial activity against Enterococcus faecium ATCC 49452 at 10 % serum
- Format: functional
- Cond: ATCC 49452, Serum
// note: answer is a bare numeric in µg/mL

1. CCCCCCCCCC(=O)N[C@@H](Cc1c[nH]c2ccccc12)C(=O)N[C@H](CC(N)=O)C(=O)N[C@@H](CCO)C(=O)N[C@@H]1C(=O)NCC(=O)N[C@@H](CCCNCc2ccc(C#N)cc2)C(=O)N[C@@H](CC(=O)O)C(=O)N[C@H](C)C(=O)N[C@@H](CC(=O)O)C(=O)NCC(=O)N[C@H](CO)C(=O)N[C@@H]([C@H](C)CC(=O)O)C(=O)N[C@@H](CC(=O)c2ccccc2N)C(=O)O[C@@H]1C : 12.5

Below: the item to evaluate.
Query: Could you tell me which MIC is on file for CCCCCCCCCC(=O)N[C@@H](Cc1c[nH]c2ccccc12)C(=O)N[C@H](CC(N)=O)C(=O)N[C@@H](CCO)C(=O)N[C@@H]1C(=O)NCC(=O)N[C@@H](CCCNCc2ccc(C(=O)N3CCN(c4ccc(F)cc4)CC3)cc2)C(=O)N[C@@H](CC(=O)O)C(=O)N[C@H](C)C(=O)N[C@@H](CC(=O)O)C(=O)NCC(=O)N[C@H](CO)C(=O)N[C@@H]([C@H](C)CC(=O)O)C(=O)N[C@@H](CC(=O)c2ccccc2N)C(=O)O[C@@H]1C ?
Reply: 6.25
